The compounds listed here are annotated with their percent inhibition of viability.
system: normal primary NK cells, pool 1 (3 donors), resting (IL-2 0 ng/mL); assay: percent inhibition of viability; higher = more inhibition; details: 72 h; 10 nM

{"columns": ["Compound", "Readout unit", "percent inhibition of viability"],
 "data": [
  ["CNC(=O)c1ccc(N2C(=S)N(c3cnc(C#N)c(C(F)(F)F)c3)C(=O)C23CCC3)cc1F [ARN 509] (max concentration tested 10000 nM)", "%", 11.7],
  ["C#Cc1cccc(Nc2ncnc3cc(OC)c(OCCCCCCC(=O)NO)cc23)c1 [CUDC-101] (max concentration tested 10000 nM)", "%", 0.86],
  ["CS(=O)(=O)c1ccc(C(=O)Nc2ccc(Cl)c(-c3ccccn3)c2)c(Cl)c1 [Vismodegib] (max concentration tested 10000 nM)", "%", 4.86],
  ["Cc1ccc(-c2cc(C(F)(F)F)nn2-c2ccc(S(N)(=O)=O)cc2)cc1 [Celecoxib] (max concentration tested 10000 nM)", "%", -19.9],
  ["COc1cc2/c(=N/c3ccc(Br)cc3F)nc[nH]c2cc1OCC1CCN(C)CC1 [Vandetanib] (max concentration tested 1000 nM)", "%", -1.4],
  ["Nc1nc(F)nc2c1ncn2[C@@H]1O[C@H](CO)[C@@H](O)[C@@H]1O [Fludarabine] (max concentration tested 10000 nM)", "%", -18.7],
  ["COc1cc(C(=O)O)ccc1NC(=O)[C@@H]1N[C@@H](CC(C)(C)C)[C@](C#N)(c2ccc(Cl)cc2F)[C@H]1c1cccc(Cl)c1F [RG7388] (max concentration tested 10000 nM)", "%", 10.5],
  ["O=C(Nc1cccc(C(F)(F)F)c1)Nc1cc(S(=O)(=O)NC2CC2)ccc1-c1ccsc1 [AGI-6780] (max concentration tested 10000 nM)", "%", 1.29],
  ["Nc1nc2[nH]cnc2c(=S)[nH]1 [Thioguanine] (max concentration tested 10000 nM)", "%", 16.6],
  ["CS(=O)(=O)c1ccc(-c2cnc(N)c(C(=O)Nc3ccccc3)n2)cc1 [VE-821] (max concentration tested 10000 nM)", "%", 20.7],
  ["Oc1ccc2c(c1)CC[C@H](c1ccccc1)[C@@H]2c1ccc(OCCN2CCCC2)cc1 [Lasofoxifene] (max concentration tested 1000 nM)", "%", 3.19],
  ["Cn1cc(-c2ccc3nnc(C(F)(F)c4ccc5ncccc5c4)n3n2)cn1 (max concentration tested 10000 nM)", "%", -15.2]
]}

----------
system: KHYG-1 (IL-2 2.5 ng/mL); test: percent inhibition of viability; higher = more inhibition; details: 72 h; 100 nM
Measured endpoint: percent inhibition of viability

{"columns": ["Compound", "Target under test", "Reported measurement"],
 "data": [
  ["N#Cc1ccc(C(c2ccc(C#N)cc2)n2cncn2)cc1 [Letrozole] (max concentration tested 10000 nM)", "KHYG-1 (IL-2 2.5 ng/mL)", "-3.04%"],
  ["Nc1nccc(-c2c(-c3ccc(F)cc3)ncn2C2CCCCC2)n1 (max concentration tested 10000 nM)", "KHYG-1 (IL-2 2.5 ng/mL)", "4.5%"],
  ["O=C(Nc1cccnc1)N1CCC(Cc2cccc(Oc3ccc(C(F)(F)F)cn3)c2)CC1 [PF-3845] (max concentration tested 10000 nM)", "KHYG-1 (IL-2 2.5 ng/mL)", "-4.44%"],
  ["Nc1nc(N)c2nc(-c3cccc(O)c3)c(-c3cccc(O)c3)nc2n1 [TG100-115] (max concentration tested 10000 nM)", "KHYG-1 (IL-2 2.5 ng/mL)", "4.43%"],
  ["Cc1cc(C)c(CNC(=O)c2cc(-c3ccc(CN4CCOCC4)cc3)cc3c2cnn3C2CCCC2)c(=O)[nH]1 [EPZ-5687] (max concentration tested 10000 nM)", "KHYG-1 (IL-2 2.5 ng/mL)", "-5.39%"],
  ["COc1cc2c(Oc3ccc4[nH]c(C)cc4c3F)ncnc2cc1OCCCN1CCCC1 [Cediranib] (max concentration tested 1000 nM)", "KHYG-1 (IL-2 2.5 ng/mL)", "3.56%"]
]}

----------
tested on: NKL (IL-2 2.5 ng/mL); assay: percent inhibition of viability; higher = more inhibition; settings: 72 h; 10 nM
The compounds listed here are annotated with their percent inhibition of viability.

{"columns": ["Compound", "Readout unit", "percent inhibition of viability"],
 "data": [
  ["NC(=O)N1CCC(CC(=O)N2CCC([C@H]3c4ncc(Br)cc4CCc4cc(Cl)cc(Br)c43)CC2)CC1 [Lonafarnib] (max concentration tested 10000 nM)", "%", -10.4],
  ["O=c1[nH]cc(F)c(=O)[nH]1 [Fluorouracil] (max concentration tested 10000 nM)", "%", -7.36],
  ["CC[C@H](NC(=O)[C@H](C)NC)C(=O)N1C[C@@H](O)C[C@H]1Cc1c(-c2[nH]c3cc(F)ccc3c2C[C@@H]2C[C@H](O)CN2C(=O)[C@H](CC)NC(=O)[C@H](C)NC)[nH]c2cc(F)ccc12 [Birinapant] (max concentration tested 1000 nM)", "%", 3.21],
  ["COc1c(C)cnc(Cn2cnc3c(Cl)nc(N)nc32)c1C [BIIB021] (max concentration tested 10000 nM)", "%", -10.3],
  ["COc1cc(OC2CCN(C)CC2)ccc1Nc1ncc2c(n1)n(C1CCCC1)c(=O)n2C [AZ 3146] (max concentration tested 10000 nM)", "%", -7.34],
  ["CNC(=O)c1cc(COc2nnc(Nc3ccc(Cl)cc3)c3ccoc23)ccn1 [Telatinib] (max concentration tested 10000 nM)", "%", 8.77]
]}

----------
test system: NK-92 (IL-2 2.5 ng/mL); assay: drug sensitivity score (DSS) (DSS units); higher = more sensitive; extreme values may be limits of the assay; settings: 72 h

{"columns": ["Compound", "drug sensitivity score"],
 "data": [
  ["CS(=O)(=O)OCCCCOS(C)(=O)=O [Busulfan] (max concentration tested 100000 nM)", 4.82],
  ["CNC(=O)c1cccc(-c2ccc3c(N4CCOC[C@@H]4C)nc(N4CCOC[C@@H]4C)nc3n2)c1 [AZD2014] (max concentration tested 10000 nM)", 14.5],
  ["CC(C)[C@H]1C(=O)N[C@@H](CCCNC(=N)N)C(=O)NCC(=O)N[C@@H](CC(=O)O)C(=O)N[C@H](Cc2ccccc2)C(=O)N1C [Cilengitide] (max concentration tested 10000 nM)", 0]
]}

----------
system: YT (IL-2 2.5 ng/mL); test: drug sensitivity score (DSS) (DSS units); higher = more sensitive; extreme values may be limits of the assay; settings: 72 h

{"columns": ["Compound", "drug sensitivity score"],
 "data": [
  ["COc1ccc(CCc2nc3cc(-c4c(C)noc4C)ccc3n2C[C@H](C)N2CCOCC2)cc1Cl [SGC-CBP30] (max concentration tested 25000 nM)", 5.56],
  ["O=C(O)CCCCC(CCSCc1ccccc1)SCc1ccccc1 (centres undefined) [CPI-613] (max concentration tested 10000 nM)", 0.45],
  ["CO[C@H]1C[C@@H]2CC[C@@H](C)[C@@](O)(O2)C(=O)C(=O)N2CCCC[C@H]2C(=O)O[C@H]([C@H](C)C[C@@H]2CC[C@@H](OP(C)(C)=O)[C@H](OC)C2)CC(=O)[C@H](C)/C=C(\\C)[C@@H](O)[C@@H](OC)C(=O)[C@H](C)C[C@H](C)/C=C/C=C/C=C/1C [Ridaforolimus] (max concentration tested 100 nM)", 11.2],
  ["CNC(=O)CN1CCC(Oc2cc3c(Nc4cccc(Cl)c4F)ncnc3cc2OC)CC1 [Sapitinib] (max concentration tested 1000 nM)", 0.02],
  ["CNC(=O)c1cccc(-c2ccc3c(N4CCOC[C@@H]4C)nc(N4CCOC[C@@H]4C)nc3n2)c1 [AZD2014] (max concentration tested 10000 nM)", 13.5],
  ["CC(=O)Nc1cccc(-n2c(=O)n(C3CC3)c(=O)c3c(Nc4ccc(I)cc4F)n(C)c(=O)c(C)c32)c1 [Trametinib] (max concentration tested 250 nM)", 0],
  ["CN1CCC(COc2cnc(-c3cccc(Cn4nc(-c5cccc(C#N)c5)ccc4=O)c3)nc2)CC1 (max concentration tested 1000 nM)", 0],
  ["CCn1cc(-c2ccnc3[nH]c(-c4cccc(CN(C)C)c4)cc23)c(-c2ccc(NC(=O)N(C)C)cc2)n1 (max concentration tested 1000 nM)", 4.47],
  ["Nc1cc(C(F)(F)F)c(-c2cc(N3CCOCC3)nc(N3CCOCC3)n2)cn1 [Buparlisib] (max concentration tested 10000 nM)", 10.4],
  ["CNC(=O)c1cc(Oc2ccc(NC(=O)Nc3ccc(Cl)c(C(F)(F)F)c3)c(F)c2)ccn1 [Regorafenib] (max concentration tested 10000 nM)", 8.99],
  ["O=C(Nc1ccc(-c2ccnc(Nc3ccc(N4CCOCC4)cc3)n2)cc1)C1CCCN1 (centres undefined) [XL019] (max concentration tested 10000 nM)", 1.85],
  ["Nc1ncn([C@@H]2O[C@H](CO)[C@@H](O)[C@H]2O)c(=O)n1 [Azacitidine] (max concentration tested 10000 nM)", 1.12],
  ["CC(=O)O[C@@]12CO[C@@H]1C[C@H](O)[C@@]1(C)C(=O)[C@H](O)C3=C(C)[C@@H](OC(=O)[C@H](O)[C@@H](NC(=O)OC(C)(C)C)c4ccccc4)C[C@@](O)([C@@H](OC(=O)c4ccccc4)[C@H]21)C3(C)C [Docetaxel] (max concentration tested 1000 nM)", 31.9],
  ["C=CCc1cccc(/C=N/NC(=O)CN2CCN(Cc3ccccc3)CC2)c1O [PAC-1] (max concentration tested 10000 nM)", 9.03],
  ["COc1cc2nccc(Oc3ccc(NC(=O)Nc4cc(C)on4)c(Cl)c3)c2cc1OC [Tivozanib] (max concentration tested 10000 nM)", 5.67],
  ["COCC[n+]1c2c(n(Cc3cnccn3)c1C)C(=O)c1ccccc1C2=O [YM155] (max concentration tested 10000 nM)", 37.6],
  ["C=CCNC1=C2C[C@@H](C)C[C@H](OC)[C@H](O)[C@@H](C)/C=C(\\C)[C@H](OC(N)=O)[C@@H](OC)/C=C\\C=C(/C)C(=O)NC(=CC1=O)C2=O [Tanespimycin] (max concentration tested 10000 nM)", 19.1],
  ["O=P1(N(CCCl)CCCl)NCCCO1 (centres undefined) [Cyclophosphamide] (max concentration tested 40000 nM)", 0],
  ["CCN1CCN(Cc2ccc(Nc3ncc(F)c(-c4cc(F)c5nc(C)n(C(C)C)c5c4)n3)nc2)CC1 [Abemaciclib] (max concentration tested 2500 nM)", 0]
]}
